// provenance: paper PMC12613848

- protocolDetails: Plasma pharmacokinetics of DT2216 in patients, phase 1 dose escalation
- Assay type: in vivo, human
- conditionLabel: human, plasma, iv, 0.4 mg/kg, Cycle 1 Day 1, 0.4 mg/kg IV, plasma, mean (CV%), N = 4; read-out: AUClast
- Experimental: Dose escalation consisted of the administration of DT2216 intravenously twice weekly at several different doses outlined in protocol attached. The starting dose was 0.04 mg/kg, established based on pre-clinical toxicity studies. Safety was evaluated using CTCAE version 5.0. […] Patients were allowed a maximum of two intra-patient dose escalations. […] The extent of disease was evaluated using imaging studies and disease-appropriate tumor markers every 8 weeks from day 1 of the first cycle. […]
attributeMeasured: AUC(0-t) (ng·h/mL)

structure	attributeMeasured	resultNumber
Cc1ncsc1-c1ccc([C@H](C)NC(=O)[C@@H]2C[C@@H](O)CN2C(=O)[C@@H](NC(=O)CCCCCC(=O)N2CCN(CC[C@H](CSc3ccccc3)Nc3ccc(S(=O)(=O)NC(=O)c4ccc(N5CCN(CC6=C(c7ccc(Cl)cc7)CCC(C)(C)C6)CC5)cc4)cc3S(=O)(=O)C(F)(F)F)CC2)C(C)(C)C)cc1	AUC(0-t)	72300

====

- protocolDetails: Plasma pharmacokinetics of DT2216 in patients, phase 1 dose escalation
- Format: in vivo, human
- conditionLabel: human, plasma, iv, 0.24 mg/kg, Cycle 1 Day 1, 0.24 mg/kg IV, plasma, mean (CV%), N = 7; read-out: Cmax
attributeMeasured: Cmax

structure	result
Cc1ncsc1-c1ccc([C@H](C)NC(=O)[C@@H]2C[C@@H](O)CN2C(=O)[C@@H](NC(=O)CCCCCC(=O)N2CCN(CC[C@H](CSc3ccccc3)Nc3ccc(S(=O)(=O)NC(=O)c4ccc(N5CCN(CC6=C(c7ccc(Cl)cc7)CCC(C)(C)C6)CC5)cc4)cc3S(=O)(=O)C(F)(F)F)CC2)C(C)(C)C)cc1	4080 ng/mL

====

- protocolDetails: Plasma pharmacokinetics of DT2216 in patients, phase 1 dose escalation
- Assay type: in vivo, human
- conditionLabel: human, plasma, iv, 0.08 mg/kg, Cycle 1 Day 22, 0.08 mg/kg IV BIW, plasma, mean (CV%), N = 1; read-out: Vdss
- Method: Dose escalation consisted of the administration of DT2216 intravenously twice weekly at several different doses outlined in protocol attached. The starting dose was 0.04 mg/kg, established based on pre-clinical toxicity studies. Safety was evaluated using CTCAE version 5.0. […] Patients were allowed a maximum of two intra-patient dose escalations. […] The extent of disease was evaluated using imaging studies and disease-appropriate tumor markers every 8 weeks from day 1 of the first cycle. […]
attributeMeasured: Vd

structure	attributeMeasured	result
Cc1ncsc1-c1ccc([C@H](C)NC(=O)[C@@H]2C[C@@H](O)CN2C(=O)[C@@H](NC(=O)CCCCCC(=O)N2CCN(CC[C@H](CSc3ccccc3)Nc3ccc(S(=O)(=O)NC(=O)c4ccc(N5CCN(CC6=C(c7ccc(Cl)cc7)CCC(C)(C)C6)CC5)cc4)cc3S(=O)(=O)C(F)(F)F)CC2)C(C)(C)C)cc1	Vd	0.091 L/kg

====

- protocolDetails: Plasma pharmacokinetics of DT2216 in patients, phase 1 dose escalation
- Format: in vivo, human
- conditionLabel: human, plasma, iv, 0.32 mg/kg, Cycle 1 Day 22, 0.32 mg/kg IV BIW, plasma, mean (CV%), N = 5; read-out: Vdss

molecule	Vd (L/kg)
Cc1ncsc1-c1ccc([C@H](C)NC(=O)[C@@H]2C[C@@H](O)CN2C(=O)[C@@H](NC(=O)CCCCCC(=O)N2CCN(CC[C@H](CSc3ccccc3)Nc3ccc(S(=O)(=O)NC(=O)c4ccc(N5CCN(CC6=C(c7ccc(Cl)cc7)CCC(C)(C)C6)CC5)cc4)cc3S(=O)(=O)C(F)(F)F)CC2)C(C)(C)C)cc1 [DT2216]	0.0837
